# protocol-details: reduced calcium signal in Ga16 cells – fluorescence, CHO-Ga16 cells, counter-screen for TAAR1 agonist project (AID 651952)
# assay-conditions: CHO-Ga16 ATP-induced calcium, Fluo-8 fluorescence; at 3 µM
Among all 2,400 compounds or so, about 940 (39%) were called active.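 How the source made its calls: active means inhibition above the plate's mean compound inhibition plus 3 SD, computed per plate (cut at about 22% in these data); inactive means the rest.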 The list is a sample of the results.
Outcomes: active, inactive

[
  {
    "compound": "NC(=O)C1=C[C@H](c2csc3ccccc23)C[C@H](OCc2ccc(CO)cc2)O1",
    "discrete-label": "active"
  },
  {
    "compound": "c1ccc(C2CNCc3c2ccc2ccccc32)cc1 (stereo not given)",
    "discrete-label": "active"
  },
  {
    "compound": "COc1ccc(OC)c(NC(=S)N2CCc3ccccc3C2)c1",
    "discrete-label": "inactive"
  },
  {
    "compound": "O=C(/C=C/[C@H]1O[C@@H](n2cnc3c(NC(=O)c4ccccc4)ncnc32)[C@H](O)[C@@H]1O)NCc1ccccc1",
    "discrete-label": "inactive"
  },
  {
    "compound": "CCCn1c(O)c(CN2CCCC(C)C2)c(C)c(C#N)c1=O (stereo not given)",
    "discrete-label": "inactive"
  },
  {
    "compound": "O=Cc1c(NCCc2cccc(F)c2)c2ccccc2[nH]c1=O",
    "discrete-label": "inactive"
  },
  {
    "compound": "CN(C)CCCN(C(=O)c1ccc(S(=O)(=O)N2CCCc3ccccc32)cc1)c1nc2ccc(F)cc2s1",
    "discrete-label": "active"
  },
  {
    "compound": "S=C(NCCCc1cnc[nH]1)NCCCN(Cc1ccc(Cl)c(Cl)c1)c1ccc(Br)cn1",
    "discrete-label": "active"
  },
  {
    "compound": "O=C(Nc1ccc(Cl)cc1)N1CCc2[nH]c3ccccc3c2C1",
    "discrete-label": "inactive"
  },
  {
    "compound": "Cc1cccc(NC(=O)C(C)N2C(=O)C3C4CC(C(Br)C4Br)C3C2=O)c1 (stereo not given)",
    "discrete-label": "active"
  }
]

meta.source: PubChem BioAssay AID651952
